# Target: FGFR2 (Homo sapiens (Human))
# Protocol summary: FGFR2 Biochemical Caliper Assay
This section presents compounds with their documented IC50 values.

INSERT INTO measurements (compound, observation_type, meas_value) VALUES
  ('C=C(C)C(=O)Nc1ccc(-c2c(-c3ccc(Cn4ccc(C)n4)cc3)c3c(N)ncnc3n2C)cc1', 'IC50', '100 to 250 nM'),
  ('C=C(C)C(=O)Nc1ccc(-c2c(-c3ccc(C(=O)NC4CCN(C)C4=O)cc3)c3c(N)ncnc3n2C)cc1 (stereo not shown)', 'IC50', '100 to 250 nM'),
  ('C=CC(=O)N1CCC(c2c(-c3ccc(S(=O)(=O)C4CC4)cc3)c3c(N)ncnc3n2C)C1 (stereo not shown)', 'IC50', '< 100 nM'),
  ('C=CC(=O)N1CCC(c2c(-c3cnn(C4CCCC4)c3)c3c(N)ncnc3n2C)C1 (stereo not shown)', 'IC50', '1000 to 100000 nM');

For the compound C=C(C)C(=O)Nc1ccc(-c2c(-c3ccc(Oc4cccc(C)n4)cc3)c3c(N)ncnc3n2C)cc1CN(C)C , what IC50 is on record?
100 to 250 nM

Similarly, C=CC(=O)N1CCC(c2c(-c3ccc(-c4ccno4)cc3)c3c(N)ncnc3n2C)C1 (stereo not shown) ?
250 to 1000 nM

Cool, now C=C(C)C(=O)Nc1ccc(-c2c(-c3ccc(C(=O)N4CC(F)(F)C4)cc3)c3c(N)ncnc3n2C)cc1
1000 to 100000 nM

* * *

# Target: FGFR2 (Homo sapiens (Human), UniProt P21802)
# Sequence (P21802 22-821): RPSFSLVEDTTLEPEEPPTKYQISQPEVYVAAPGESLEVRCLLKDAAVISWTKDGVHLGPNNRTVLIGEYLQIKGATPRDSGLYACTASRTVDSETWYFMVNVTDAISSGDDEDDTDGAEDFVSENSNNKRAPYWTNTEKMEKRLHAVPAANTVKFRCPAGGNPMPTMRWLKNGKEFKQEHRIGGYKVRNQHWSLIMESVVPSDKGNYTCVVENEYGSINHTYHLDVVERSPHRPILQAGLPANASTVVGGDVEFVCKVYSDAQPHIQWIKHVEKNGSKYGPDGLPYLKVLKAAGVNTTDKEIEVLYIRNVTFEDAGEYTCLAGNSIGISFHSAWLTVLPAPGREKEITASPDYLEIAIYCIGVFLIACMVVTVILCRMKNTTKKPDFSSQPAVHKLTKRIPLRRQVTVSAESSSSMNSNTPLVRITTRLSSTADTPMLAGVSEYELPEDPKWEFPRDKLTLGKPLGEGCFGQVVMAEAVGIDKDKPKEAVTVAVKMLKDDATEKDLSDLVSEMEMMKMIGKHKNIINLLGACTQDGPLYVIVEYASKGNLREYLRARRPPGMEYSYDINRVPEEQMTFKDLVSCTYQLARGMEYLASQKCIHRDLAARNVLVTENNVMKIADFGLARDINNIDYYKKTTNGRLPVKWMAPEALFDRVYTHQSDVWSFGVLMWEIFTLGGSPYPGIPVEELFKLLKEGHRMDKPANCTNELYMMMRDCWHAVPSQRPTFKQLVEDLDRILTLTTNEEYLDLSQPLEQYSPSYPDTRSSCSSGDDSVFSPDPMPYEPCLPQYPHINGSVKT
# Protocol summary: Biochemical FGFR2 Caliper assay
pIC50: −log10 of the molar value.
Below, each of the molecules is paired with its reported pIC50 value.

INSERT INTO results (molecule, observation_type, meas_value) VALUES
  ('C=C(C)C(=O)Nc1ccc(-c2c(-c3ccc4c(c3)OCC4c3cccc(C)n3)c3c(N)ncnc3n2C)cc1 (stereo not shown) [Example 907]', 'pIC50', '> 7.00'),
  ('C=CC(=O)N1CCC(n2cc(-c3c(-c4ccc(C(=O)NCC(C)(C)O)cc4)c4c(N)ncnc4n3C)cn2)CC1 [Example 854]', 'pIC50', '6.60 to 7.00'),
  ('C=C(C)C(=O)Nc1ccc(-c2cn3ncnc(N)c3c2-c2ccc(S(=O)(=O)NC3CCC3)cc2)cc1 [Example 834]', 'pIC50', '6.00 to 6.60');

Item C=C(C)C(=O)Nc1ccc(-c2c(C3=CC[C@H](C(=O)N4CCCC4)OC3)c3c(N)ncnc3n2C)cc1 [Example 1014] has what recorded pIC50?
> 7.00

Next entry: C=CC(=O)Nc1ccc(-c2c(-c3ccc(Oc4cccc(C)n4)c(F)c3)c3c(N)ncnc3n2C)cc1 [Example 1053]
6.60 to 7.00

Item: C=C(C)C(=O)Nc1ccc(-c2c(-c3coc4ccccc34)c3c(N)ncnc3n2C)cc1 [Example 1273]
4.00 to 6.00

What about C=C(C)C(=O)Nc1ccc(-c2c(-c3ccc(Oc4cccc(C)n4)cc3)c3ncncc3n2C)cc1 [Example 820] ?
> 7.00

Also C#Cc1ncc(-c2c(-c3ccc(Oc4nccc(C)n4)c(F)c3)c3c(C)ncnc3n2C)cc1OC [Example 1381] ?
6.60 to 7.00

Another: C=C(C)C(=O)Nc1ccc(-c2c(-c3ccc(-c4ccn(C)n4)nc3)c3c(N)ncnc3n2C)cc1 [Example 1124]
4.00 to 6.00

Next record, please: C=C(C)C(=O)N1CC=C(c2c(-c3ccc(Oc4cccc(C)n4)cc3)c3c(N)ncnc3n2C)[C@@H]1C (single isomer, unassigned) [Example 931]
6.00 to 6.60

Entry to check: C#Cc1ncc(-c2c(-c3ccc(Oc4nccc(C)n4)cc3)c3c(N)ncnc3n2C)c(C)c1F [Example 1164]
> 7.00

Another molecule: C=C(C)C(=O)Nc1ccc(-c2c(-c3cc4ccccc4s3)c3c(N)ncnc3n2C)cc1 [Example 1209]
6.00 to 6.60

Next molecule: C=C1CCN(c2ccc(-c3c(-c4ccc(Oc5nccc(C)n5)c(F)c4)c4c(C)ncnc4n3C)c(C)c2)C1=O [Example 1186]
> 7.00

CC(=O)C(=O)Nc1ccc(-c2c(-c3ccc(C(=O)N4CCc5ccccc54)cc3)c3c(N)ncnc3n2C)cc1 [Example 980] , same question.
> 7.00

Ok, now C#Cc1ncc(-c2c(-c3ccc(Oc4nccc(C)n4)cc3)c3c(N)ncnc3n2C)cc1OC [Example 1178]
4.00 to 6.00

Also C=CC(=O)N1CCC(c2c(-c3ccc(Oc4cccc(C)n4)cc3)c3c(N)ncnc3n2C)C1(C)C (stereo not shown) [Example 844] , if possible.
4.00 to 6.00

What about C=C(C)C(=O)Nc1ccc(-c2c(C3=CC[C@@H](C(=O)N4CCCCCC4)CC3)c3c(N)ncnc3n2C)cc1 (single isomer, unassigned) [Example 979] ?
6.00 to 6.60

// same read-out, input: C=C(C)C(=O)Nc1cnc(-c2c(-c3ccc(Oc4cccc(C)n4)c(F)c3)c3c(C)ncnc3n2C)c(C)c1 [Example 1139]
> 7.00

Same question, C=Cc1cc(-c2c(-c3ccccc3)c3c(N)ncnc3n2C)ccn1 [Example 1195] this time
6.60 to 7.00

Also check C=CC(=O)Nc1ccc(-c2c(-c3ccc(Oc4ccccc4)cc3)c3c(C)ncnc3n2C)cc1 [Example 1225]
6.00 to 6.60

Now the molecule C=C1CCN(c2ccc(-c3c(C4=CC[C@H](C(=O)N5CCCC5)CC4)c4c(C)ncnc4n3C)c(Cl)c2)C1=O (single isomer, unassigned) [Example 1141]
> 7.00

* * *

# Target: FGFR2 (Homo sapiens (Human))
# Protocol summary: FGFR2 Biochemical Caliper Assay
Observation type: IC50

See these solved cases before continuing.
INSERT INTO assay_data (molecule, observation_type, meas_value) VALUES
  ('C=C(C)C(=O)Nc1ccc(-c2c(-c3ccc4[nH]c(=O)n(C)c4c3)c3c(N)ncnc3n2C)cc1', 'IC50', '1000 to 100000 nM'),
  ('C=C(C)C(=O)Nc1ccc(-c2c(-c3ccc(N4CCCCC4=O)cc3)c3c(N)ncnc3n2C)cc1', 'IC50', '1000 to 100000 nM'),
  ('C=C(C)C(=O)Nc1ccc(-c2c(-c3ccc(Oc4nccc(C)n4)cc3C#N)c3c(N)ncnc3n2C)cc1', 'IC50', '1000 to 100000 nM'),
  ('C=C(C)C(=O)Nc1ccc(-c2c(-c3ccc(C(=O)NCC4CCC4)c(F)c3)c3c(N)ncnc3n2C)nc1', 'IC50', '< 100 nM'),
  ('C=C(C)C(=O)Nc1ccc(-c2c(-c3ccc(Oc4ncc(F)cn4)c(C)c3)c3c(N)ncnc3n2C)c(F)c1', 'IC50', '< 100 nM');

Name the reported IC50 value associated with the molecule C=C(C)C(=O)Nc1ccc(-c2c(-c3ccc(C(=O)N4CCCC4)c(OC)c3)c3c(N)ncnc3n2C)cc1
250 to 1000 nM

Same read-out for C=CC(=O)N1CCC(c2c(-c3ccc(Oc4cccc(C)n4)cc3)c3c(N)ncnc3n2C)CC1 ?
< 100 nM

One more molecule: C=C(C)C(=O)Nc1ccc(-c2c(-c3ccc(Oc4cccc(CO)n4)cc3)c3c(N)ncnc3n2C)cc1
< 100 nM

Try this molecule next: CC(Cl)C(=O)Nc1ccc(-c2c(-c3ccc(C(=O)N4CCCC4)cc3)c3c(N)ncnc3n2C)cc1 (stereo not drawn)
250 to 1000 nM

Same read-out for C=CC(=O)N1CCC(c2c(-c3ccc(Oc4ncccn4)cc3)c3c(N)ncnc3n2C)CC1 ?
250 to 1000 nM

And what about the molecule C=C(C)C(=O)Nc1ccc(-c2c(-c3cc(N)c(Oc4ccccn4)c(F)c3)c3c(N)ncnc3n2C)cc1 ?
100 to 250 nM

* * *

# Target: FGFR2 (Homo sapiens (Human))
# Protocol summary: FGFR2 Biochemical Caliper Assay
# IC50 per record follows

Use these answered entries as a reference point.
INSERT INTO results (compound, meas_value) VALUES
  ('C=C(C)C(=O)Nc1ccc(-c2c(-c3ccc(CC(=O)N(C)C)c(F)c3)c3c(N)ncnc3n2C)cc1', '1000 to 100000 nM'),
  ('C=C(C)C(=O)Nc1ccc(-c2c(-c3ccc(Oc4nccc(C)n4)c(F)c3)c3c(N)ncnc3n2C2CCOC2)cc1 (centres unmarked)', '< 100 nM'),
  ('C=C(C)C(=O)Nc1ccc(-c2c(-c3ccc(C(=O)NC4(COC)CCC4)cc3)c3c(N)ncnc3n2C)cc1', '< 100 nM'),
  ('C=CC(=O)N1CCC(N2CC(c3c(-c4ccc(Oc5cccc(C)n5)c(OC)c4)c4c(N)ncnc4n3C)C2)CC1', '1000 to 100000 nM'),
  ('C=CC(=O)N1CCC(c2c(-c3ccc(Oc4ncccn4)cc3)c3c(N)ncnc3n2CCN2CCOCC2)C1 (centres unmarked)', '1000 to 100000 nM');

Please give the measured IC50 for this compound: C=C(C)C(=O)N1CCC(c2c(-c3ccc(Oc4cccc(C)n4)cc3)c3c(N)ncnc3n2C)C1 (centres unmarked)
250 to 1000 nM

Do the same for C=CC(=O)N1CCC(c2c(-c3ccc(C4CCC(=O)N4)cc3)c3c(N)ncnc3n2C)C1 (centres unmarked) please
1000 to 100000 nM

Further, for C=CC(=O)N1CC(c2c(-c3ccc(Oc4ccccc4)cc3)c3c(N)ncnc3n2C)C1 ?
< 100 nM

Moving on to the next compound: C=C(C)C(=O)Nc1ccc(-c2c(-c3ccc(C(=O)NCC4(O)CCC4)cc3)c3c(N)ncnc3n2C)cc1
< 100 nM

Continue with C=C(C)C(=O)Nc1ccc(-c2c(C3=CCC(C(=O)NC)CC3)c3c(N)ncnc3n2C)cc1 (centres unmarked)
1000 to 100000 nM

Can you handle C=C(C)C(=O)Nc1ccc(-c2c(-c3ccc(C(=O)N4CC5(CCCC5)C4)cc3)c3c(N)ncnc3n2C)cc1 next?
1000 to 100000 nM

Subsequent entry: C=C(C)C(=O)Nc1ccc(-c2c(-c3cc(F)c(Oc4cnccn4)c(F)c3)c3c(N)ncnc3n2C)cc1
1000 to 100000 nM
